Measured values drawn from the Deep4Chem optical property database for this set.

# experiment.summary: solvent given as SMILES
# measurement.parameters: in ClCCl
Measured emission maximum accompanies every entry in the list below.
# value in nm; strip the unit string

Below are worked cases with known answers.
{"columns": ["compound", "units.label", "emission maximum"],
 "data": [
  ["COc1ccc(-c2cc(-c3ccc(C#N)cc3)nn2C)cc1", "nm", 384],
  ["C(=C\\c1nc(/C=C/c2ccc(-n3c4ccccc4c4ccccc43)cc2)nc(/C=C/c2ccc(-n3c4ccccc4c4ccccc43)cc2)n1)/c1ccc(-n2c3ccccc3c3ccccc32)cc1", "nm", 526]
]}

Please look up its emission maximum: `c1ccc(B2Nc3cc4c(cc3-c3occc32)NB(c2ccccc2)c2ccoc2-4)cc1` 393

Please look up its emission maximum: `CC(C)(C)c1ccc(C2=CC3=C(c4ccccc4)c4cc(-c5ccc(C(C)(C)C)cc5)c(-c5ccc(C(C)(C)C)cc5)n4[B-](F)(F)[N+]3=C2c2ccc(C(C)(C)C)cc2)cc1` 649

Please look up its emission maximum: `CC(=O)c1nc(-c2ccc(N(C)C)cc2)oc1C` 373

Please look up its emission maximum: COC(=O)C1=C(C(=O)OC)C2(c3ccccc3-c3c(Br)cc(Br)cc32)C2(/C=C/c3ccc(Cl)cc3)c3cc(OC)c(OC)cc3CCN12 (stereo not drawn) 520

Please look up its emission maximum: `CC(C)[Si](C#Cc1c2cc3ccccc3cc2c(C#C[Si](C(C)C)(C(C)C)C(C)C)c2nc3cc4c(cc3nc12)C1c2ccccc2C4c2ccccc21)(C(C)C)C(C)C` 718

###

# experiment.summary: solvent given as SMILES
# measurement.parameters: in CCO
One threshold, 500 nm, splits the recorded emission maximum values: lower ones are Condition met, equal or higher ones are Condition not met.

Worked cases, answers included:
{"columns": ["molecule", "discrete.label"],
 "data": [
  ["c1ccc2cc(-n3c4ccccc4c4ccccc43)ccc2c1", "Condition met"],
  ["COc1ccc2c(-c3nc(-c4ccccc4F)no3)cc(=O)oc2c1", "Condition met"],
  ["C=C(C)C(CN1C(=O)c2cccc3c2c(cc2oc(C)nc23)C1=O)OO (stereo not given)", "Condition met"]
]}

Confirm or reject: emission maximum of `CC1=C(C(C)(C)C)C(C)=[N+]2C1=C(C)c1c(C)c(C(C)(C)C)c(C)n1[B-]2(F)F` lies strictly below 500 nm Condition not met

Confirm or reject: emission maximum of `COc1ccc(-n2nc(C(=O)N3CCCC3)c(N3CCCC3)n2)cc1` lies strictly below 500 nm Condition met

Confirm or reject: emission maximum of `O=c1c2cc(F)c(O)cc2sc2cc(O)c(F)cc12` lies strictly below 500 nm Condition met

Confirm or reject: emission maximum of `CCCCN1\C(=C/C=C/C=C/C2=[N+](CCCC)c3ccc4ccccc4c3C2(C)C)C(C)(C)c2c1ccc1ccccc21` lies strictly below 500 nm Condition not met

###

Measured emission maximum accompanies every entry in the list below.
# experiment.summary: solvent given as SMILES
# measurement.parameters: in ClCCl
# value in nm; strip the unit string

Below are worked cases with known answers.
{"columns": ["line.notation", "units.label", "emission maximum"],
 "data": [
  ["CCN(CC)c1ccc2cc(C#N)/c(=N\\C(=O)c3ccc(F)cc3)oc2c1", "nm", 507],
  ["COC(=O)c1cc(=O)n(C)c2cc(-c3ccc4c(c3)OCO4)sc12", "nm", 474],
  ["COc1ccc(C#Cc2c3ccccc3c(C#Cc3ccc(OC)cc3)c3ccccc23)cc1", "nm", 492],
  ["COC(=O)c1[nH]c(-c2ccccc2)c2nnc3ccc(OC)cc3c12", "nm", 475],
  ["CC(C)c1cccc(C(C)C)c1N1C(c2ccccc2)=Cc2ccc3ccccc3[n+]2[B-]1(F)F", "nm", 472]
]}

Please look up its emission maximum: `c1ccc(N(c2ccccc2)c2ccc(-c3ccc4c(c3)C3(c5cc(-c6ccc(N(c7ccccc7)c7ccccc7)cc6)ccc5O4)c4ccccc4-c4ccccc43)cc2)cc1` 419

Please look up its emission maximum: `CCCCCCCCCCOc1ccc(C#Cc2cc3c(C#Cc4ccc(OCCCCCCCCCC)cc4)c(C#Cc4ccc(OCCCCCCCCCC)cc4)c4cc(C#Cc5ccc(OCCCCCCCCCC)cc5)cc5c(C#Cc6ccc(OCCCCCCCCCC)cc6)c(C#Cc6ccc(OCCCCCCCCCC)cc6)c(c2)c3c45)cc1` 466

###

# experiment.summary: solvent given as SMILES
# measurement.parameters: in C1CCOC1
measurement.kind: emission maximum (nm)
# value in nm; strip the unit string

{"columns": ["compound", "emission maximum / nm"],
 "data": [
  ["N#Cc1c[nH]c2ccccc12", 314],
  ["O=Cc1ccc(N(c2ccc(C=O)cc2)c2ccc(-c3ccc4c(c3)C(=O)c3ccccc3C4=O)cc2)cc1", 662]
]}

Please look up its emission maximum: CC1CC=C(c2ccc(-c3ccc(C#N)s3)s2)CC1 (stereo not drawn) 443

Please look up its emission maximum: `N#Cc1c(N2CCCCC2)cc(-c2cccs2)c2c1CCc1ccccc1-2` 474

Please look up its emission maximum: `Cc1cc(C)c([B-]2(c3c(C)cc(C)cc3C)[O+]=P(c3ccccc3)(c3ccccc3)c3cc(-c4ccc(C(F)(F)F)cc4)sc3-c3sc(-c4ccc(C(F)(F)F)cc4)cc32)c(C)c1` 468

Please look up its emission maximum: `CCCCCCc1ccc2c(/C=N/c3ccc(/N=C/c4c(O)ccc5cc(CCCCCC)ccc45)cc3)c(O)ccc2c1` 542

Please look up its emission maximum: `CCCCCCCCn1nnc(-c2ccc(C#Cc3ccc(C#Cc4ccc(-c5nnn(CCCCCCCC)n5)cc4)c4nc5c6ccccc6c6ccccc6c5nc34)cc2)n1` 495

Please look up its emission maximum: `c1ccc(-c2nc(-c3ccccc3)nc(-n3c4ccccc4c4cc(-n5c6ccccc6c6ccccc65)cc(-n5c6ccccc6c6ccccc65)c43)n2)cc1` 482.53

Please look up its emission maximum: `O=c1c2cc(-n3c4ccccc4c4ccccc43)ccc2sc2ccc(-n3c4ccccc4c4ccccc43)cc12` 460

Please look up its emission maximum: `CCC(CC)COC1=CC2=C3c4cc(OCC(CC)CC)c(-c5ccccc5)n4[B-](F)(F)[n+]4nnn(c43)[B-](F)(F)[N+]2=C1c1ccccc1` 725

Please look up its emission maximum: `c1cc2ccc1-c1ccc(cc1)-c1ccc([se]1)-c1ccc(cc1)-c1ccc(cc1)-c1ccc([se]1)-c1ccc(cc1)-c1ccc(cc1)-c1ccc-2[se]1` 560

Please look up its emission maximum: `CCCCCCc1ccc(-n2c3[n+](c4c5ccccc5c5ccccc5c42)[B-](C)(C)c2cc(N(c4ccccc4)c4ccccc4)ccc2-3)cc1` 435

Please look up its emission maximum: `CCCCn1c2c(-c3ccc(N(c4ccccc4)c4ccccc4)cc3)cc(C#N)cc2c2cc(C#N)cc(-c3ccc(N(c4ccccc4)c4ccccc4)cc3)c21` 449

Please look up its emission maximum: `C(=C\c1cnccn1)/c1ccc(N(c2ccccc2)c2ccccc2)cc1` 487

Please look up its emission maximum: `CN(C)c1ccc2c(c1)C(=O)NC2=O` 459

Please look up its emission maximum: `CCc1nc2c(nc1CC)C(c1ccccc1)=[N+]1C2=Nc2c3nc(CC)c(CC)nc3c(-c3ccccc3)n2[B-]1(F)F` 721

Please look up its emission maximum: `COc1cc2c(cc1-c1ccc(F)cc1)Cc1c3c(c4c(c1-2)-c1cc(OC)c(-c2ccc(F)cc2)cc1C4)C(=O)N(CCC(C)C)C3=O` 468

Please look up its emission maximum: `Cc1ccccc1/C(C#N)=C/c1ccc(N(C)C)cc1` 484

Please look up its emission maximum: `COC(=O)C1=C(C(=O)OC)C2=C[C@H]3c4ccccc4[C@]2(S1)c1ccccc13` 477

Please look up its emission maximum: `C(=C\c1nc(/C=C/c2ccc(-n3c4ccccc4c4ccccc43)cc2)nc(/C=C/c2ccc(-n3c4ccccc4c4ccccc43)cc2)n1)/c1ccc(-n2c3ccccc3c3ccccc32)cc1` 500

Please look up its emission maximum: `F[B-]1(F)n2c(c3cccc4cccc2c43)=Nc2sc3ccccc3[n+]21` 501

Please look up its emission maximum: `Cc1ccc(C2=C3C=CC(c4ccccc4)=[N+]3[B-](F)(F)n3c2ccc3-c2ccccc2)cc1` 586

Please look up its emission maximum: `CCCCCCCCCCCCOc1cc(C(=O)Nc2ccc(-c3ccc4c(c3)C(=O)c3cc(-c5ccc(NC(=O)c6cc(OCCCCCCCCCCCC)c(OCCCCCCCCCCCC)c(OCCCCCCCCCCCC)c6)cc5)ccc3-4)cc2)cc(OCCCCCCCCCCCC)c1OCCCCCCCCCCCC` 542

Please look up its emission maximum: `CCOC(=O)COc1ccc(/C=C/c2c(CC)c(C)c3n2[B-](F)(F)[N+]2=C(c4[nH]c(C)c(CC)c4C)c4ccccc4C2=C3C)cc1` 709

Please look up its emission maximum: `CCCCN1c2ccccc2Sc2cc(/C=C/c3nc4nc5ccccc5nc4s3)ccc21` 670

Please look up its emission maximum: `F[B-]1(F)n2c(-c3cccs3)cc(-c3cccs3)c2N=C2C(c3cccs3)=CC(c3cccs3)=[N+]21` 763

Please look up its emission maximum: `CC(C)(C)c1ccc(-c2nc3c4ccccc4c4ccccc4c3n2-c2ccc(C(C)(C)C)cc2)cc1` 390

Please look up its emission maximum: `Cc1ccc(C2=C3C=CC(Sc4ccccc4)=[N+]3[B-](F)(F)n3c(Sc4ccccc4)ccc32)cc1` 599

Please look up its emission maximum: CCCCC1=Cc2c3ccc4cccc5ccc(c6cc(-c7ccccc7)n(c26)P1(=O)c1ccccc1)c3c45 (stereo not drawn) 459

Please look up its emission maximum: `[O-]c1ccccc1/C=N/c1ccccc1/N=C/c1ccccc1[O-]` 490
